# Test system: MCF7
# PROTOCOL TEXT: Cytotoxicity against human MCF7 cells assessed as reduction in cell viability after 48 hrs by MTT assay
# Format: functional, cell-based
# CONDITIONS: MCF7, 48 h
VALUE TYPE: pIC50
Expect pIC50 as a plain number equal to -log10 of the molar concentration.

{"SMILES": "COC(=O)C[C@@H]1c2c(-c3ccc(O)cc3OC)cc(O)c(O)c2C[C@@H]1C(C)(C)O", "pIC50": 5.17}

What reported pIC50 corresponds to COc1cc(O)ccc1C(=O)C[C@@H]1c2ccc(O)c(O)c2C[C@H]1C(C)(C)O on MCF7? 5.48

Follow-up item: COC(=O)C[C@@H]1c2c(-c3ccc(O)cc3OC)cc(O)c(O)c2C[C@H]1C(C)(C)O 5.14

What do you have for COc1cc(O)ccc1C(=O)C[C@H]1c2ccc(O)c(O)c2C[C@@H]1C(C)(C)O ? 5.41
